B1: C20orf112 (parent)
chain: YANGGLNYSYRGYGALSSNLQPPA

- Variants of: B1
- protocol notes: protein stability index of a GFP-peptide fusion (GPS, HEK-293T) (PSI 1-6); higher = more stable;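 further: lentivirally expressed fusions sorted by FACS into six bins by GFP to DsRed ratio, PSI derived from sequencing read proportions per bin multiplied by bin number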
- recorded conditions: c terminus: a fixed tail appended
Label rule, in plain words: protein stability index of 2 and up is Y, under 2 is N.

[
  {
    "changes": "Y8A",
    "label class": "N"
  },
  {
    "changes": "G12T",
    "label class": "Y"
  },
  {
    "changes": "Y13L",
    "label class": "Y"
  },
  {
    "changes": "G5N",
    "label class": "N"
  },
  {
    "changes": "G14C",
    "label class": "Y"
  },
  {
    "changes": "S17T",
    "label class": "Y"
  },
  {
    "changes": "G12M",
    "label class": "Y"
  },
  {
    "changes": "Y10W",
    "label class": "Y"
  },
  {
    "changes": "A24P",
    "label class": "Y"
  },
  {
    "changes": "L20D",
    "label class": "N"
  },
  {
    "changes": "G14D",
    "label class": "N"
  },
  {
    "changes": "L16V",
    "label class": "Y"
  },
  {
    "changes": "Q21K",
    "label class": "Y"
  },
  {
    "changes": "L16E",
    "label class": "Y"
  },
  {
    "changes": "G12S",
    "label class": "N"
  },
  {
    "changes": "G5E",
    "label class": "Y"
  },
  {
    "changes": "Y10P",
    "label class": "N"
  }
]
